# target system: recombinant human TFPI (tissue factor pathway inhibitor) (human, UniProt P10646 29-304)
# method: cell-based or functional assay
measured property: FXa assay OD, 20 nM Ab, 10 nM TFPI

# annotated cases, reported FXa assay OD, 20 nM Ab, 10 nM TFPI shown
FXa assay OD, 20 nM Ab, 10 nM TFPI for clone 3 (antibody, V domains shown) VH: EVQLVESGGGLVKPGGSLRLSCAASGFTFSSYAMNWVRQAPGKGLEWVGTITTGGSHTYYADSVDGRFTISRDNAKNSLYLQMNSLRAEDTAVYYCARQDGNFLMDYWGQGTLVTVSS VL: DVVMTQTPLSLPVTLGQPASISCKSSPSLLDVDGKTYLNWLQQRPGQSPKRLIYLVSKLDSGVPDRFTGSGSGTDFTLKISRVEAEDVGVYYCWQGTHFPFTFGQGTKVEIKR is 0.618

FXa assay OD, 20 nM Ab, 10 nM TFPI for clone 8 (antibody, V domains shown) VH: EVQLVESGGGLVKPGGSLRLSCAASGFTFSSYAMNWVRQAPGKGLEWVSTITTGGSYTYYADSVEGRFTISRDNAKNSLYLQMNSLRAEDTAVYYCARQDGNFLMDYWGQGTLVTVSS VL: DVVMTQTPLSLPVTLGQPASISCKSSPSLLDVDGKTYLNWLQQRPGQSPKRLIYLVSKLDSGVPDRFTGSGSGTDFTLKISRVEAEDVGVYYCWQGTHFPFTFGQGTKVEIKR is 0.61

FXa assay OD, 20 nM Ab, 10 nM TFPI for clone 2 (antibody, V domains shown) VH: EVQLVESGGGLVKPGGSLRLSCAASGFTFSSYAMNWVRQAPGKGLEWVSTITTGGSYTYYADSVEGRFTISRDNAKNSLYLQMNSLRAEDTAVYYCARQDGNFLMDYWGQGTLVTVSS VL: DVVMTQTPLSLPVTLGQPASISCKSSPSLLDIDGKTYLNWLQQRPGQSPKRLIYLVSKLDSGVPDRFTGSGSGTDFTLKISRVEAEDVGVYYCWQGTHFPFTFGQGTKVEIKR is 0.58

FXa assay OD, 20 nM Ab, 10 nM TFPI for clone 7 (antibody, V domains shown) VH: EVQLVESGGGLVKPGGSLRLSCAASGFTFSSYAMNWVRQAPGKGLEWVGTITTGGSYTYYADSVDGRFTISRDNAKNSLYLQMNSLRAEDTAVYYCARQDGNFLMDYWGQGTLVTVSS VL: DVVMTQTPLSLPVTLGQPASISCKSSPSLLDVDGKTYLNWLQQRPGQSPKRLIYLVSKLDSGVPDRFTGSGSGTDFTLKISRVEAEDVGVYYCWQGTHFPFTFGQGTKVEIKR is 0.574

FXa assay OD, 20 nM Ab, 10 nM TFPI for clone 10 (antibody, V domains shown) VH: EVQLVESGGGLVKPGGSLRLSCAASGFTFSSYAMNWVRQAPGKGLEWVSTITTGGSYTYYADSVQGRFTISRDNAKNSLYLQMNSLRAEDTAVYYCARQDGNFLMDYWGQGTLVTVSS VL: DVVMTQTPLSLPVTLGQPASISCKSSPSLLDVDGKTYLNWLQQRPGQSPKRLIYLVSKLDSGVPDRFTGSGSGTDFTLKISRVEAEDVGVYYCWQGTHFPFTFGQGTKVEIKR is 0.292

FXa assay OD, 20 nM Ab, 10 nM TFPI for clone 1 (antibody, V domains shown) VH: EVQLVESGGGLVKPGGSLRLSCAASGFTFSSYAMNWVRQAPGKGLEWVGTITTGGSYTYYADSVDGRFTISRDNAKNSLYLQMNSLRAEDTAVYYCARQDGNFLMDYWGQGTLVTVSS VL: DVVMTQTPLSLPVTLGQPASISCKSSPSLLDSDGKTYLNWLQQRPGQSPKRLIYLVSKLDSGVPDRFTGSGSGTDFTLKISRVEAEDVGVYYCWQGTHFPFTFGQGTKVEIKR is 0.548

Next up:
FXa assay OD, 20 nM Ab, 10 nM TFPI for clone 1023 (antibody, V domains shown, scFv on yeast at selection; human IgG4/kappa IgG as purified) VH: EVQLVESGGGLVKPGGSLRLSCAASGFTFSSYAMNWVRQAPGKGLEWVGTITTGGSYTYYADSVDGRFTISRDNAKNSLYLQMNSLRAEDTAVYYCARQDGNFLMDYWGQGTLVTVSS VL: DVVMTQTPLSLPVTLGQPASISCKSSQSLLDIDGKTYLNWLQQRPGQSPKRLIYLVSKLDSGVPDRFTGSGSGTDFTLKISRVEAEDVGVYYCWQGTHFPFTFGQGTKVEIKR is 0.639
